Taken from ChEMBL document CHEMBL5614428.

System: Staphylococcus aureus
Assay: Antibacterial activity against methicillin-resistant Staphylococcus aureus NRS-1 assessed as inhibition of bacterial growth incubated for 18 hrs by two fold serial dilution assay
Format: functional

{"columns": ["structure_string", "MIC [µg/mL]"],
 "data": [
  ["CC1(C)c2nc3ccccc3nc2C[C@]2(C)[C@H]3C[C@@H](O)[C@@H]4[C@@H]([C@@](C)(O)CCC(N)=O)CC[C@@]4(C)[C@]3(C)CC[C@@H]12", 4],
  ["CC1(C)c2nc3ccccc3nc2C[C@]2(C)[C@H]3C[C@@H](O)[C@@H]4[C@@H]([C@@](C)(O)CCC(=O)Nc5ncc[nH]5)CC[C@@]4(C)[C@]3(C)CC[C@@H]12", 8],
  ["CNC(=O)CC[C@](C)(O)[C@H]1CC[C@]2(C)[C@@H]1[C@H](O)C[C@@H]1[C@@]3(C)Cc4nc5ccccc5nc4C(C)(C)[C@@H]3CC[C@]12C", 4]
]}
